System: RNA polymerase II CTD serine2 phosphorylation in Hep3B cells
testDetails: H5 (Ser2) Ab High Content Screen: RNA polymerase II CTD serine2 phosphorylation Assay
Format: cell-based
conditionInfo: Homo sapiens, compounds for 2 hours, H5 antibody nuclear staining
pIC50: −log10 of the molar value.
Measured pIC50 accompanies every entry in the list below.
valueType: pIC50

>>> result("CS(=O)(=O)c1cccc(Nc2nccc(-c3cccc4[nH]ccc34)n2)c1 [Compound 2]")
"> 5.30"
>>> result("Clc1cccc(Nc2nccc(-c3cccc4c3ccn4CCN3CCOCC3)n2)c1 [Compound 9]")
"4.30 to 4.82"
>>> result("Cc1cnc(Nc2cccc(S(C)(=O)=O)c2)nc1-c1cccc2[nH]ccc12 [Compound 31]")
"> 5.30"
>>> result("Clc1cccc(Nc2nccc(-c3cccc4[nH]ccc34)n2)c1 [Compound 1]")
"> 5.30"
>>> result("CCNC(=O)Cn1ccc2c(-c3ccnc(Nc4cccc(Cl)c4)n3)cccc21 [Compound 13]")
"> 5.30"
